Assay: Release of parent compound from prodrugs in pooled human plasma
Type: in vitro ADME
Details: 37C, spiked with 5 uM of the prodrug, 20 min
Description: Confirmation that the prodrugs of the invention convert completely to active 2′3′-dideoxy-3′-C-hydromethylcytosine parent compound can be assessed by monitoring the appearance of the parent compound in pooled human plasma, 37C, spiked with 5 uM of the prodrug: […]
Assignment: determine reported Concentration of parent uM 20 min for the given compounds.
The number alone won't do; follow it with the unit.

Entry CCCCC(=O)OC[C@H]1C[C@H](n2ccc(N)nc2=O)O[C@@H]1CO ; Concentration of parent uM 20 min = 4.4 µM

Entry CC(C)[C@H](N)C(=O)OCC1CC(n2ccc(N)nc2=O)OC1CO (some centres unmarked) ; Concentration of parent uM 20 min = 1.0 µM

Entry CC(C)[C@H](N)C(=O)O[C@@H](C)C(=O)OCC1CC(n2ccc(N)nc2=O)OC1CO (some centres unmarked) ; Concentration of parent uM 20 min = 4.6 µM

Entry CC(C)[C@H](N)C(=O)OCC1CC(n2ccc(N)nc2=O)OC1COC(=O)[C@@H](N)C(C)C (some centres unmarked) ; Concentration of parent uM 20 min = 0.3 µM

Entry CCCCC(=O)OCC1CC(n2ccc(N)nc2=O)OC1COC(=O)CCCC (centres unmarked) ; Concentration of parent uM 20 min = 4.5 µM
